- Tested on: SK-MEL-5
- measurementDescription: NCI tumour cell line growth inhibition, 48 h
Activity calls are given as the source filed them. Rule as the data show it: active = GI50 up to about 1.1 µM and inactive = higher. Where a SMILES comes first, the peptide text is derived from it. [ ]: non-standard residue; d: D form. The star is where a group is joined. NMeF = CN[CH](Cc1ccccc1)C(=O)O; NMeV = CN[CH](C(=O)O)C(C)C; Boc = CC(C)(C)OC(=O)*; OBn = c1ccc(CO*)cc1

compound: CCOP(=O)(OCC)C(C)(CC)NC1=NC(C(F)(F)F)(C(F)(F)F)NC(=O)N1 (centres undefined)
targetOfAssay: SK-MEL-5
GI50: > 100 µM (inactive)
--
compound: CCC(C)C1(O)OC2CC3(C)OC(=CC3=O)/C(C)=C\C3OC(=O)C1(C)C32 (centres undefined)
targetOfAssay: SK-MEL-5
GI50: 10.5 µM (inactive)
--
compound: Nn1c(Nc2ccc(S(N)(=O)=O)cc2)nnc(/C=C/c2c(O)ccc3ccccc23)c1=O
targetOfAssay: SK-MEL-5
GI50: 14.5 µM (inactive)
--
compound: Oc1ccc(Cl)cc1C1=NC(NCN2CCN(CNC3=NC(c4ccccc4)CC(c4cc(Cl)ccc4O)=N3)CC2)=NC(c2ccccc2)C1 (centres undefined)
targetOfAssay: SK-MEL-5
GI50: 93.5 µM (inactive)
--
compound: COc1cc2oc(=O)ccc2cc1C(=O)CC(C)C
targetOfAssay: SK-MEL-5
GI50: > 100 µM (inactive)
--
compound: CCCCCCCCOCC(COC(=O)CCCCCCC)OC(=O)CCCCCCC (centres undefined)
targetOfAssay: SK-MEL-5
GI50: > 100 µM (inactive)
--
compound: N#CCc1nc2cc(C(F)(F)F)ccc2s1
targetOfAssay: SK-MEL-5
GI50: 50.7 µM (inactive)
--
compound: CSc1nc(NC2OCC(OC(C)=O)C(OC(C)=O)C2OC(C)=O)c2c(n1)OCC2=O (centres undefined)
targetOfAssay: SK-MEL-5
GI50: > 100 µM (inactive)
--
compound: CC(C)C(NC(=O)OC(C)(C)C)C(=O)N(C)C(Cc1ccccc1)C(=O)N(C)C(C(=O)N(C)C(C(=O)OCc1ccccc1)C(C)C)C(C)C (centres undefined) (Boc-V[NMeF][NMeV][NMeV]-OBn; configuration not given here)
targetOfAssay: SK-MEL-5
GI50: 12.5 µM (inactive)
--
compound: COc1ccc(C2S/C(=C\c3cccc(OC)c3)C(=O)N2NC(=O)Cc2ccccc2)cc1 (centres undefined)
targetOfAssay: SK-MEL-5
GI50: > 100 µM (inactive)
--
compound: CCC1OC(=O)C(C)C(OC2CC(C)(O)C(O)C(C)O2)C(C)C(O)C(C)(O)CC(C)C(=O)C(C)C(O)C1C (centres undefined)
targetOfAssay: SK-MEL-5
GI50: > 300 µM (inactive)
--
compound: CCO/C=N/C1=C(C#N)C(c2ccc(Cl)cc2)c2c(-c3ccccc3)nn(-c3ccccc3)c2O1 (centres undefined)
targetOfAssay: SK-MEL-5
GI50: > 10 µM (inactive)
--
compound: O=C(O)c1cc(CCc2cc(O)ccc2O)ccc1O
targetOfAssay: SK-MEL-5
GI50: > 100 µM (inactive)
--
compound: O=C1/C(=C/c2ccc(Cl)cc2)CNC/C1=C\c1ccc(Cl)cc1
targetOfAssay: SK-MEL-5
GI50: 4.44 µM (inactive)
--
compound: COc1ccc(C2c3c[nH]nc3CC3CCCCC32)cc1 (centres undefined)
targetOfAssay: SK-MEL-5
GI50: 15.7 µM (inactive)
--
compound: N#CCCC(CC#N)N1CCN(C(CC#N)CCC#N)CC1 (centres undefined)
targetOfAssay: SK-MEL-5
GI50: > 100 µM (inactive)
--
compound: COc1ccc(-c2cc(-c3ccc(Nc4ccnc5cc(C(F)(F)F)ccc45)cc3)nc(N)c2C#N)cc1
targetOfAssay: SK-MEL-5
GI50: > 100 µM (inactive)
--
compound: Cc1ccc(NC(=O)CC2C(=O)Nc3ccccc3[S+]2[O-])cc1C (centres undefined)
targetOfAssay: SK-MEL-5
GI50: 73.8 µM (inactive)
--
compound: CCCCCCCC(CC(=O)O)OC(=O)CC(CCCCCCC)OC1OC(C)C(O)C(O)C1OC1OC(C)C(O)C(O)C1O (centres undefined)
targetOfAssay: SK-MEL-5
GI50: > 100 µM (inactive)

###

- Tested on: HOP-18
- measurementDescription: NCI tumour cell line growth inhibition, 48 h
The source made the active and inactive calls. Cut-off read from the data, not from the text of the source: active = GI50 up to about 1.1 µM and inactive = higher.
Classes used: active, inactive

molecule: CCC1(CC)C(=O)NC(=O)NC1=S
targetOfAssay: HOP-18
classAssignment: inactive
//
molecule: COc1ccc([C@@H]2CC(=O)NCCCNCCCCNCCCN2)cc1
targetOfAssay: HOP-18
classAssignment: inactive
//
molecule: CSc1sc(=S)sc1SC
targetOfAssay: HOP-18
classAssignment: inactive
//
molecule: NC1=NS(=O)(=O)Nc2nc(-c3ccc(Cl)cc3)[nH]c21
targetOfAssay: HOP-18
classAssignment: inactive
//
molecule: COc1ccc(C2S/C(=C\c3cccc(OC)c3)C(=O)N2NC(=O)Cc2ccccc2)cc1 (stereo not drawn)
targetOfAssay: HOP-18
classAssignment: inactive
//
molecule: CN(C)CCCNc1ccc2ncn3c4ccccc4c(=O)c1c23
targetOfAssay: HOP-18
classAssignment: inactive
//
molecule: Cc1cc(N(CCC#N)CCC#N)ccc1/N=N/c1ccc(Br)cc1
targetOfAssay: HOP-18
classAssignment: inactive
//
molecule: Cc1c(C)c([N+](=O)[O-])c2c(c1N)C(=O)c1ccccc1C2=O
targetOfAssay: HOP-18
classAssignment: inactive
//
molecule: NS(=O)(=O)c1ccc(NC(=O)Cc2nc3ccccc3s2)cc1
targetOfAssay: HOP-18
classAssignment: inactive
//
molecule: Cc1cn(C2OC(C)(CO)C(O)C2O)c(=O)[nH]c1=O (stereo not drawn)
targetOfAssay: HOP-18
classAssignment: inactive
//
molecule: O=C(Nc1ccc([N+](=O)[O-])cc1Cl)c1cccc([N+](=O)[O-])c1O
targetOfAssay: HOP-18
classAssignment: active
//
molecule: C=C1CCC2C(C)(CO)C(O)CCC2(C)C1C/C=C1/CCOC1=O (stereo not drawn)
targetOfAssay: HOP-18
classAssignment: inactive
//
molecule: O=C(c1ccccc1)c1cn(/N=C\c2ccccc2)c(=O)nc1-c1ccccc1
targetOfAssay: HOP-18
classAssignment: inactive

###

- System: MOLT-4
- measurementDescription: NCI tumour cell line growth inhibition, 48 h
Activity calls are given as the source filed them. No stated cut-off is given here; in the data, active = GI50 up to about 1.1 µM and inactive = higher.
Recorded GI50 for the following compounds

compound: CC(C)(C)[Si](C)(C)OCC1OC(n2cnc3c(=O)[nH]cnc32)CC1O (centres undefined)
GI50: > 100 µM (inactive)
//
compound: CCOP(=O)(OCC)C(C)(CC)NC1=NC(C(F)(F)F)(C(F)(F)F)NC(=O)N1 (centres undefined)
GI50: > 100 µM (inactive)
//
compound: CC(C)OP(=O)(OC(C)C)/C(=N/Nc1ccccc1[N+](=O)[O-])NCCN/C(=N\Nc1ccccc1[N+](=O)[O-])P(=O)(OC(C)C)OC(C)C
GI50: 43.2 µM (inactive)
//
compound: O=C(/C=C/c1ccc(/C=C/C(=O)c2ccc(O)cc2)cc1)c1ccc(O)cc1
GI50: > 100 µM (inactive)
//
compound: CCC/C=C/C=C\C(=O)O[C@@H]1[C@@H](C)[C@]2(O)[C@@H]3C=C(C)C(=O)[C@H]3CC(COC(C)=O)=C[C@H]2[C@@H]2C(C)(C)[C@]12OC(C)=O
GI50: 10.2 µM (inactive)
//
compound: Cc1cc(C)c(S(=O)(=O)N2CCN(S(=O)(=O)c3c(C)cc(C)cc3C)OCCCCCO2)c(C)c1
GI50: > 100 µM (inactive)
//
compound: CN1N(c2ccccc2)C(=O)C2=NC=C(C(=O)c3ccccc3)C(=N)C21C (centres undefined)
GI50: > 100 µM (inactive)
//
compound: COc1nc(OC)nc(-c2cccc(F)c2)n1
GI50: 4.99 µM (inactive)
//
compound: COc1ccc(/C=C/c2cc(O)cc(OC)c2)cc1
GI50: 56.5 µM (inactive)

###

- Tested on: HOP-62
- measurementDescription: NCI tumour cell line growth inhibition, 48 h
The source made the active and inactive calls. No stated cut-off is given here; in the data, active = GI50 up to about 1.1 µM and inactive = higher.
Classes used: 1.0 (active), 0.0 (inactive)

compound: N#CC1N(C(=O)c2ccc(F)cc2)c2ccccc2N1C(=O)c1ccc(F)cc1
targetOfAssay: HOP-62
classAssignment: 0.0
--
compound: SCCCSCCSCCCSCCS
targetOfAssay: HOP-62
classAssignment: 0.0
--
compound: O=CN(CCN1CCCC1)C1CCc2cc(Cl)c(Cl)cc2C1 (stereo not drawn)
targetOfAssay: HOP-62
classAssignment: 0.0
--
compound: O=C(CCCn1cnc([N+](=O)[O-])n1)NCCCn1ccnc1[N+](=O)[O-]
targetOfAssay: HOP-62
classAssignment: 0.0
--
compound: COc1ccccc1/C=C1\NC(=S)N(/C=C2\C(=O)Oc3ccccc3C2=O)C1=O
targetOfAssay: HOP-62
classAssignment: 0.0
--
compound: O=C1c2c(O)cccc2C(C(=O)CCCCCC(=O)C2c3cccc(O)c3C(=O)c3c(O)cccc32)c2cccc(O)c21
targetOfAssay: HOP-62
classAssignment: 0.0
--
compound: COC(=O)C(=O)C(C(=O)C=C(C)C)C(=O)C(=O)Nc1cc(C(F)(F)F)ccc1Cl (stereo not drawn)
targetOfAssay: HOP-62
classAssignment: 0.0
--
compound: O=c1c2c(c1=O)-c1ccccc1CN2
targetOfAssay: HOP-62
classAssignment: 0.0
--
compound: O=C(O)c1cccc2cccc(-c3c4ccc(=O)cc-4oc4cc(O)ccc34)c12
targetOfAssay: HOP-62
classAssignment: 0.0
--
compound: CC(C)OP(=O)(OC(C)C)/C(=N/Nc1ccccc1[N+](=O)[O-])NCCN/C(=N\Nc1ccccc1[N+](=O)[O-])P(=O)(OC(C)C)OC(C)C
targetOfAssay: HOP-62
classAssignment: 0.0
--
compound: CCOP(=O)(OCC)C(C)(CC)NC1=NC(C(F)(F)F)(C(F)(F)F)NC(=O)N1 (stereo not drawn)
targetOfAssay: HOP-62
classAssignment: 0.0
--
compound: O=C(O)CN1CCCC(Cc2c[nH]c3ccccc23)C1 (stereo not drawn)
targetOfAssay: HOP-62
classAssignment: 0.0
--
compound: NP1(Oc2ccc(F)cc2)=NP(N)(Oc2ccc(F)cc2)=NP(Oc2ccc(F)cc2)(Oc2ccc(F)cc2)=N1 (stereo not drawn)
targetOfAssay: HOP-62
classAssignment: 0.0
--
compound: COc1ccc(CN(CCc2c[nH]c3ccccc23)Cc2ccc(OC)cc2)cc1
targetOfAssay: HOP-62
classAssignment: 0.0
--
compound: CC(C)(/C=N/O)/[N+]([O-])=C/c1ccccc1
targetOfAssay: HOP-62
classAssignment: 0.0
--
compound: CC(=O)O[C@H]1C(=O)[C@@]2(C)[C@H]([C@H](OC(=O)c3ccccc3)[C@]3(O)C[C@H](OC(=O)[C@H](O)[C@@H](NC(=O)CC(C)(C)C)c4ccccc4)C(C)=C1C3(C)C)C1(OC(C)=O)CO[C@@H]1C[C@@H]2O (stereo partly drawn)
targetOfAssay: HOP-62
classAssignment: 1.0
--
compound: O=c1[nH]c2cc([N+](=O)[O-])c(N(CCO)CCO)c([N+](=O)[O-])c2[nH]1
targetOfAssay: HOP-62
classAssignment: 0.0
--
compound: O=C(c1ccc(Cl)cc1)N(C(=S)OC12CC3CC(CC(C3)C1)C2)c1ccccc1
targetOfAssay: HOP-62
classAssignment: 0.0
--
compound: CC(=O)C(CN(C)Cc1ccccc1)C(c1ccccc1)c1c(O)c2ccccc2oc1=O (stereo not drawn)
targetOfAssay: HOP-62
classAssignment: 0.0
--
compound: CNc1c2c(c3nc4ccccc4c4c3c1N=C4)NCCC2=O
targetOfAssay: HOP-62
classAssignment: 0.0
--
compound: COc1ccccc1N1C(=O)/C(=C\c2ccccc2)SC1c1cc(OC)c(OC)c(OC)c1 (stereo not drawn)
targetOfAssay: HOP-62
classAssignment: 0.0
--
compound: COC(=O)c1c2c(cc3c1CC1(Cc4cc5c(cc4C1=O)CCC5)C3)CCC2 (stereo not drawn)
targetOfAssay: HOP-62
classAssignment: 0.0
--
compound: Cc1nc2ccccc2n1COC(Cn1ccnc1)c1ccc(Cl)cc1Cl (stereo not drawn)
targetOfAssay: HOP-62
classAssignment: 0.0
--
compound: CCC1OC(=O)C(C)C(OC2CC(C)(O)C(O)C(C)O2)C(C)C(O)C(C)(O)CC(C)C(=O)C(C)C(O)C1C (stereo not drawn)
targetOfAssay: HOP-62
classAssignment: 0.0
--
compound: CC(C)(C)OC(=O)NC(Cc1ccccc1)OCc1ccccc1 (stereo not drawn)
targetOfAssay: HOP-62
classAssignment: 0.0
--
compound: CC(=O)OC1CC2C(C)(C)OC(=O)CC(OC(C)=O)[C@]2(C)C2CCC3(C)C(=CCC3[C@H]3COC(=O)C3)[C@]12C (stereo partly drawn)
targetOfAssay: HOP-62
classAssignment: 0.0
--
compound: O=C(O)CC1NCc2cc3ccccc3nc21 (stereo not drawn)
targetOfAssay: HOP-62
classAssignment: 0.0
--
compound: COC(=O)C1OC(O[C@H]2CC[C@]3(C)[C@H]4CC=C5[C@@H]6CC(C)(C)CC[C@]6(C(=O)OC)CC[C@@]5(C)[C@]4(C)CC[C@H]3C2(C)C)C(O)C(O)C1O (stereo partly drawn)
targetOfAssay: HOP-62
classAssignment: 0.0
--
compound: Cc1ccc(C(CC(=O)C(C)(C)CN2CCCCC2)SCCS(=O)(=O)O)cc1 (stereo not drawn)
targetOfAssay: HOP-62
classAssignment: 0.0
--
compound: CC(=O)OC[C@@H](OC(C)=O)[C@@H](OC(C)=O)[C@H]1OC[C@@H]2C[C@H]([C@H]1OC(C)=O)N(Cc1ccccc1)O2
targetOfAssay: HOP-62
classAssignment: 0.0
--
compound: COc1cccc(C(=O)Oc2ccc(OS(=O)(=O)c3ccc(C)cc3)cc2)c1C#N
targetOfAssay: HOP-62
classAssignment: 0.0
--
compound: CC1(C)OC2CN(C(=O)OCc3ccccc3)C(CO)C2O1 (stereo not drawn)
targetOfAssay: HOP-62
classAssignment: 0.0
--
compound: O=S(=O)(O)c1ccc(/N=N/c2ccc(/N=N/c3c(O)ccc4ccccc34)c(S(=O)(=O)O)c2)cc1
targetOfAssay: HOP-62
classAssignment: 0.0
--
compound: Nc1c(Cl)c([N+](=O)[O-])cc2c1OCCCCO2
targetOfAssay: HOP-62
classAssignment: 0.0
--
compound: COc1ccc(CC(N)c2ccc(OC)cc2)cc1 (stereo not drawn)
targetOfAssay: HOP-62
classAssignment: 0.0
--
compound: Cc1ccc(Nc2cc(=O)[nH]c(=S)[nH]2)cc1
targetOfAssay: HOP-62
classAssignment: 0.0
--
compound: CC(C)Cc1ccc(C(C)CC2=CCC(CN(C)C)C2=O)cc1 (stereo not drawn)
targetOfAssay: HOP-62
classAssignment: 0.0
--
compound: N=C(N)C1CN(CCCCCCCCCCN2CC(C(=N)N)C(O)=NC2=O)C(=O)N=C1O (stereo not drawn)
targetOfAssay: HOP-62
classAssignment: 0.0
